- targetEntity: SARS-CoV-2 helicase (nsp13) (Severe acute respiratory syndrome coronavirus 2)
- conditionNotes: read-out: IC50 for unwinding activity
observationType: IC50 (nM)
Answer with a number only, understood to be in nM.

Input: Query: IC50; subject: Nc1ccc([O-])c(=O)cc1.Nc1ccc([O-])c(=O)cc1.Nc1ccc([O-])c(=O)cc1.[Bi+3] [Bi(Tro-NH2)3, Bi(5-aminotropolonate)3]
Output: 360

###

- targetEntity: SARS-CoV-2 helicase (nsp13) (Severe acute respiratory syndrome coronavirus 2)
- conditionNotes: read-out: IC50 for ATPase
observationType: IC50 (nM)
Answer with a number only, understood to be in nM.

Input: Query: IC50; subject: Nc1ccc([O-])c(=O)cc1.Nc1ccc([O-])c(=O)cc1.Nc1ccc([O-])c(=O)cc1.[Bi+3] [Bi(Tro-NH2)3, Bi(5-aminotropolonate)3]
Output: 30
